Assay: in vitro
Settings: rat, gh3-tre-luc cells, AC50 (uM) modified / 1000
Where a name gives a salt, the structure may show the parent alone.
assay-endpoint: CC50 at 24 h

Record request: CC50 at 24 h value, item N=C1C=CC(=C(c2ccc(N)cc2)c2ccc(N)cc2)C=C1 [C.I. Basic Red 9 monohydrochloride]
8.8 µM

Further cases:
If you can, please state the reported CC50 at 24 h value of CC(C)C[P+](C)(CC(C)C)CC(C)C [Triisobutylmethylphosphonium tosylate] .
> 90 µM

Which CC50 at 24 h value belongs to Brc1ccc(Oc2ccccc2)cc1 ?
> 90 µM

Consider the molecule CC(C)c1ccc(S(=O)(=O)O)cc1 and give its measured CC50 at 24 h.
> 90 µM
